Recorded pKi for the following molecules
# target_system: JAK2 (Homo sapiens (Human))
# protocol_description: JAK2 activity inhibition assay (radioactive kinase assay / Caliper assay)
# Format: biochemical
# conditions_used: read-out: JAK2 Ki
pKi: −log10 of the molar value.

Example entries and their recorded answers appear below.
[[record]]
molecule = "CC1(C)CN(c2ccc(Nc3cc(-c4c(F)cccc4F)nc4c3C(=O)NC4)nc2)CC[C@@H]1O"
measured_result = "7.00 to 8.00"

[[record]]
molecule = "O=C(Cc1ccc(Nc2nc(-c3c(F)cccc3F)nc3c2C(=O)NC3)cn1)NC1CCNCC1"
measured_result = "< 6.00"

[[record]]
molecule = "COC(=O)[C@@H]1COCCN1C(=O)Cc1ccc(Nc2nc(-c3c(F)cccc3F)nc3c2C(=O)NC3)cc1"
measured_result = "6.00 to 7.00"

[[record]]
molecule = "COc1ccc(Nc2cc(-c3c(F)cccc3Cl)nc3c2C(=O)NC3)nc1"
measured_result = "7.00 to 8.00"

[[record]]
molecule = "CCNC(=O)Cc1ccc(Nc2nc(-c3c(F)cncc3F)nc3c2C(=O)NC3)cc1"
measured_result = "< 6.00"

[[record]]
molecule = "O=C1NCc2nc(-c3c(F)cccc3Cl)cc(Nc3ccc(N4CCCC4)cn3)c21"
measured_result = "< 6.00"

[[record]]
molecule = "O=C1NCc2nc(-c3c(F)cccc3F)nc(Nc3ccc(CC(=O)N4CCS(=O)(=O)CC4)cc3)c21"
measured_result = "7.00 to 8.00"

[[record]]
molecule = "CC1(C)CC(c2ccc(Nc3nc(-c4c(F)cccc4F)nc4c3C(=O)NC4)cc2)C(=O)N1 (stereo not drawn)"
measured_result = "6.00 to 7.00"

[[record]]
molecule = "C[C@@H]1COC[C@@H](C)N1c1ccc(Nc2cc(-c3c(F)cccc3F)nc3c2C(=O)NC3)nc1"
measured_result = "> 8.00"

[[record]]
molecule = "C[C@@H](CO)NC(=O)Cc1ccc(Nc2nc(-c3c(F)cccc3F)nc3c2C(=O)NC3)cc1"
measured_result = "6.00 to 7.00"


query: Form field: reported pKi of O=C1NCc2nc(-c3c(F)cccc3F)cc(Nc3ccc(C4(O)CCOCC4)cn3)c21
result: 7.00 to 8.00

---

# target_system: JAK2 (Homo sapiens (Human))
# protocol_description: JAK2 activity inhibition assay (radioactive kinase assay / Caliper assay)
# Type: biochemical
# conditions_used: read-out: JAK2 Ki
pKi: −log10 of the molar value.
metric_name: pKi

[[record]]
entry_smiles = "C[C@H](C(=O)N1CCCCC1)c1ccc(Nc2nc(-c3c(F)cccc3F)nc3c2C(=O)NC3)cc1"
metric_name = "pKi"
measured_result = "6.00 to 7.00"

[[record]]
entry_smiles = "CCNC(=O)Cc1ccc(Nc2cc(-c3c(F)cccc3F)nc3c2C(=O)NC3)nc1"
metric_name = "pKi"
measured_result = "6.00 to 7.00"

[[record]]
entry_smiles = "CC(C)(C)N1CCN(c2ccc(Nc3cc(-c4c(F)cccc4F)nc4c3C(=O)NC4)nc2)CC1"
metric_name = "pKi"
measured_result = "> 8.00"

[[record]]
entry_smiles = "O=C1NCc2nc(-c3c(F)cccc3F)nc(Nc3ccc([C@H]4CCN(CCN5CCOCC5)C4=O)cc3)c21"
metric_name = "pKi"
measured_result = "6.00 to 7.00"


query: Reported pKi for COC(=O)[C@H]1C[C@H](Nc2nc(-c3c(F)cccc3F)nc3c2C(=O)NC3)C1 : what is it?
result: < 6.00

query: Can you share its pKi? I mean this compound: O=C1NCc2nc(-c3c(F)cccc3F)cc(Nc3ccc([C@@H]4CCNC4=O)cn3)c21
result: 7.00 to 8.00

query: Would you mind telling me what pKi value was observed for NC(=O)Cc1ccc(Nc2nc(-c3ccccc3Cl)nc3c2C(=O)NC3)cc1 ?
result: < 6.00

query: Please look up its pKi: CN1CC2(C1)CN(c1ccc(Nc3cc(-c4c(F)cccc4F)nc4c3C(=O)NC4)nc1)C2
result: 7.00 to 8.00

query: Need pKi of O=C(O)Cc1ccc(Nc2nc(-c3c(F)cncc3F)nc3c2C(=O)NC3)cc1 , thanks.
result: < 6.00

query: Which value of pKi has been reported for NC(=O)c1cc(F)c(-c2cc(Nc3ccc(N4CCOCC4)cn3)c3c(n2)CNC3=O)c(F)c1 in the records?
result: 6.00 to 7.00

query: Given O=C1NCc2nc(-c3c(F)cccc3F)cc(Nc3ccc(N4CCC(N5CCOCC5)CC4)cn3)c21 , state its recorded pKi.
result: 7.00 to 8.00

query: Reported pKi, compound O=C1NCc2nc(-c3c(F)cccc3F)cc(Nc3ccc(NC4CCC4)cn3)c21 : ____
result: 7.00 to 8.00

query: # query: pKi of entry CC1(C)CCN(c2ccc(Nc3cc(-c4c(F)cccc4F)nc4c3C(=O)NC4)nc2)CC1
result: 6.00 to 7.00

query: Quick one: pKi of CN1CC[C@](C)(c2ccc(Nc3nc(-c4c(F)cccc4F)nc4c3C(=O)NC4)cc2)C1=O ?
result: 6.00 to 7.00

query: pKi for CCNC(=O)Cc1ccc(Nc2nc(-c3c(F)cccc3F)nc3c2C(=O)NC3)cn1 ?
result: < 6.00

query: Need pKi of O=C1NCc2nc(-c3c(F)cccc3F)nc(Nc3ccc(C(=O)N4CCC4)cc3)c21 , thanks.
result: 6.00 to 7.00

---

# target_system: JAK2 (Homo sapiens (Human), UniProt O60674)
# Sequence (O60674 whole entry): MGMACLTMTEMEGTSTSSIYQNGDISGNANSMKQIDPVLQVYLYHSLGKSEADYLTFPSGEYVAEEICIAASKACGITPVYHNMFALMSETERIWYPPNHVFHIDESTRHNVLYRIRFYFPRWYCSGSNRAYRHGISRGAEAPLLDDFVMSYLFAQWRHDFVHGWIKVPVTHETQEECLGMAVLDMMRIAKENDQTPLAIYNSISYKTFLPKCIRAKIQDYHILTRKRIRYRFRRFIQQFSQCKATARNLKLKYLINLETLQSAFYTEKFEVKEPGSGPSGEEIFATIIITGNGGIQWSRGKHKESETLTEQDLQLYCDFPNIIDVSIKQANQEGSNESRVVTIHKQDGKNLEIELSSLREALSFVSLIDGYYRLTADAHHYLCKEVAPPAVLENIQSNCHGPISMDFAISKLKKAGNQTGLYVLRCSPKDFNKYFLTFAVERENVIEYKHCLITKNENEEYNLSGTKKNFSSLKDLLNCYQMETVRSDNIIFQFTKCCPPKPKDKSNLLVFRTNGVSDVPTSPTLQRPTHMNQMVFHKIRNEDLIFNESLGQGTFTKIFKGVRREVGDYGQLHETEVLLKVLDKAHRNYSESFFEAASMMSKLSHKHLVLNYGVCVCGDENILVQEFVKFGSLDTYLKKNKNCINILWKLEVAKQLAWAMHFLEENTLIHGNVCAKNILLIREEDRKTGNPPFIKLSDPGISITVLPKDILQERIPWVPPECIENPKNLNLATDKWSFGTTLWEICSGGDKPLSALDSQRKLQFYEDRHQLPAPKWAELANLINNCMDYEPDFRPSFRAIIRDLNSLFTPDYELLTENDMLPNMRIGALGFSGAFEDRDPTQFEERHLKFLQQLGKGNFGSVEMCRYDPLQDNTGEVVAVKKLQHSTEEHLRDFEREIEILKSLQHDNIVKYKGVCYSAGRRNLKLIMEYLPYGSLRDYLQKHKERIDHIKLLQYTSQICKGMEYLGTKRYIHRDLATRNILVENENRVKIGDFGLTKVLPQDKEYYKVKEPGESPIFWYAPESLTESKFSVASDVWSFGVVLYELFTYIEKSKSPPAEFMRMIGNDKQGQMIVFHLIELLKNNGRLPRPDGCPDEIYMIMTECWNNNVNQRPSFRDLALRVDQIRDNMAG
# protocol_description: JAK2 activity inhibition assay (radioactive kinase assay / Caliper assay)
# Type: biochemical
# conditions_used: read-out: JAK2 Ki
metric_name: Ki

Consider the worked cases shown below.
[[record]]
entry_smiles = "CC(C)N1CCN(C(=O)c2ccc(Nc3cc(-c4c(F)cccc4F)nc4c3C(=O)NC4)cc2)CC1"
measured_result = "10 to 100 nM"

[[record]]
entry_smiles = "CCOC(=O)Cc1ccc(Nc2nc(-c3c(F)cccc3Cl)nc3c2C(=O)NC3)cc1"
measured_result = "100 to 1000 nM"

[[record]]
entry_smiles = "O=C(Cc1ccc(Nc2nc(-c3c(F)cccc3F)nc3c2C(=O)NC3)cc1)N[C@@H]1CCNC1"
measured_result = "100 to 1000 nM"

[[record]]
entry_smiles = "C[C@H](CO)NC(=O)Cn1cc(Nc2nc(-c3c(F)cccc3F)nc3c2C(=O)NC3)cn1"
measured_result = "> 1000 nM"

[[record]]
entry_smiles = "C[C@@H](C(=O)N1CCCCC1)c1ccc(Nc2nc(-c3c(F)cccc3F)nc3c2C(=O)NC3)cc1"
measured_result = "100 to 1000 nM"

[[record]]
entry_smiles = "O=C1NCc2nc(-c3c(F)cccc3F)cc(Nc3ccc(N4CCN(CCC(F)(F)F)CC4)cn3)c21"
measured_result = "10 to 100 nM"


query: Entry CC[C@@]1(c2ccc(Nc3nc(-c4c(F)cccc4F)nc4c3C(=O)NC4)cc2)CCNC1=O : reported Ki = ?
result: 10 to 100 nM

---

We begin with a simple list: items and their reported pKi.
# target_system: UniProt O60674
# protocol_description: JAK2 activity inhibition assay (radioactive kinase assay / Caliper assay)
# Assay type: biochemical
# conditions_used: read-out: JAK2 Ki
pKi: −log10 of the molar value.

Example entries begin here.
[[record]]
compound = "O=C1NCc2nc(-c3c(F)cccc3F)cc(Nc3ccc(N4CC(O)C4)cn3)c21"
metric_name = "pKi"
measured_result = "7.00 to 8.00"

[[record]]
compound = "O=C1NCc2nc(-c3c(F)cccc3F)cc(Nc3ccc(N4CCC(O)CC4)cn3)c21"
metric_name = "pKi"
measured_result = "7.00 to 8.00"

[[record]]
compound = "O=C(Cc1ccc(Nc2nc(-c3c(F)cccc3F)nc3c2C(=O)NC3)cc1)NC1CNC1"
metric_name = "pKi"
measured_result = "6.00 to 7.00"

[[record]]
compound = "O=C(O)Cc1ccc(Nc2nc(-c3c(Cl)cccc3Cl)nc3c2C(=O)NC3)cc1"
metric_name = "pKi"
measured_result = "6.00 to 7.00"

[[record]]
compound = "CN1CCN(c2ccc(Nc3cc(-c4c(F)cccc4F)nc4c3C(=O)NC4)nc2)CC1"
metric_name = "pKi"
measured_result = "7.00 to 8.00"


query: API: value(readout=pKi, system=UniProt O60674) for record CC1COCCN1c1ccc(Nc2cc(-c3c(F)cccc3F)nc3c2C(=O)NC3)nc1 (centres unmarked)
result: 7.00 to 8.00

query: What pKi appears in the records for this compound with UniProt O60674? O=C1NCc2nc(-c3c(F)cccc3F)nc(Nc3ccc(Cl)cc3)c21
result: < 6.00

query: Kindly state the measured pKi obtained for COc1ccc(Nc2cc(-c3c(F)cccc3F)nc3c2C(=O)NC3)cc1 with UniProt O60674.
result: 6.00 to 7.00
